pIC50: −log10 of the molar value.
Here's what we have: pIC50 numbers for Human Tyk2 kinase domain (Homo sapiens (Human)).

Sample records with pIC50:
CC[C@H](C1CCC1)n1cc(-c2nc(-c3cnn(C[C@@H](O)CO)c3)cn3nccc23)cn1 (single isomer, unassigned) [Example 196] : 6.00 to 7.00
CCC(CC)n1cc(-c2nc(-c3cnn([C@@H]4CCC[C@@H]4O)c3)cn3nccc23)cn1 [Example 189] : 7.00 to 8.00
CC[C@@H]1CCC[C@@H]1n1cc(-c2nc(-c3cnn(C[C@@H](O)CO)c3)cn3nccc23)cn1 (single isomer, unassigned) [Example 207] : 7.00 to 8.00
CCC(CC)n1cc(-c2nc(-c3cnn(CC(=O)N4CCOCC4)c3)cn3nccc23)cn1 [Example 6] : 7.00 to 8.00
CCC(CC)n1cc(-c2nc(-c3cnn(C4CCN(C(=O)N(C)C)CC4)c3)cn3nccc23)cn1 [Example 35] : 7.00 to 8.00
CC(C)C[C@H](C)n1cc(-c2nc(-c3cnn(C(CO)CO)c3)cn3nccc23)cn1 [Example 87] : 6.00 to 7.00

Input line: Consider the compound CCC(CC)n1cc(-c2nc(-c3cnn(C[C@H](O)CN4CCCC4)c3)cn3nccc23)cn1 [Example 105] . State its measured pIC50.
Output line: 6.00 to 7.00

Input line: Answer with reported pIC50 of CCC(CC)n1cc(-c2nc(-c3cnn(CCN[C@@H]4CCN(C)C4=O)c3)cn3nccc23)cn1 [Example 143]
Output line: 6.00 to 7.00

###

- targetUnderTest: JAK1 (Homo sapiens (Human), UniProt P23458)
- Sequence (P23458 whole entry): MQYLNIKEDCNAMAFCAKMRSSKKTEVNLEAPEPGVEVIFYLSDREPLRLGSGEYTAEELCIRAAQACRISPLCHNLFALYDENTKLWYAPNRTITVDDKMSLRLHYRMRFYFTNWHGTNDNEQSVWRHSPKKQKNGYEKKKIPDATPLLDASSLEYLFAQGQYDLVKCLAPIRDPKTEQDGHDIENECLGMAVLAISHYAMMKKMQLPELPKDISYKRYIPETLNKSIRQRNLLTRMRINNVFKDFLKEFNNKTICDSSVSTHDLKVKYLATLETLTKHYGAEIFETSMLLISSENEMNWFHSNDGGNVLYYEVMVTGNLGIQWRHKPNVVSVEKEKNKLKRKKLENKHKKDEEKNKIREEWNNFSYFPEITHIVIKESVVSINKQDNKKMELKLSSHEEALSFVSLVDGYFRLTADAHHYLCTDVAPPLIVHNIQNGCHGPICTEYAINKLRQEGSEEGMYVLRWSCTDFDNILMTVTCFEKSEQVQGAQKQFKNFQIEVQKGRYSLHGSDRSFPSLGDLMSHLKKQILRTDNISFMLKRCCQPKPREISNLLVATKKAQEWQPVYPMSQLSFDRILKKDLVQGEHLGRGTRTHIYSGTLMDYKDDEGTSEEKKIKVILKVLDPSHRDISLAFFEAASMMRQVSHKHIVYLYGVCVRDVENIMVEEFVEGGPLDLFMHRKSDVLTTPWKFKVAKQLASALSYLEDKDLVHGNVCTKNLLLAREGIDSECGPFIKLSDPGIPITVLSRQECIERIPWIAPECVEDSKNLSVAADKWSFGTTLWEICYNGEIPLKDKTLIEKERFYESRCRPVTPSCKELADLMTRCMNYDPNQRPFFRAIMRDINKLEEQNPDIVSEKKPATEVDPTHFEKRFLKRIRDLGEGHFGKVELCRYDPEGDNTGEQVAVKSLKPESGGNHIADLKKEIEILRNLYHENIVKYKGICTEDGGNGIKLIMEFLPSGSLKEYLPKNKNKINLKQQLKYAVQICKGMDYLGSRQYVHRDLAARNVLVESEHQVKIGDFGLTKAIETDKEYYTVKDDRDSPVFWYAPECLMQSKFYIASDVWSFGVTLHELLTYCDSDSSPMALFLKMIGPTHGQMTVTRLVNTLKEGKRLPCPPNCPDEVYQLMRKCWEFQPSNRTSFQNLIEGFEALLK
- assayInfo: JAK1 Inhibition Assay (Example B, Omnia kinase fluorescence peptide substrate assay)
- Assay type: biochemical
- appliedConditions: JAK1 Enzyme IC50 1 mM ATP, 1 mM ATP; averaged IC50 ranges
pIC50: −log10 of the molar value. Structures can show the parent of a compound that is named as a salt.
Recorded pIC50, one value per entry.

These recorded examples may help you get a feel for the data.
C[C@@H]1CCCC[C@H]1n1cc(-c2nc(-c3cnn(C[C@@H](O)CO)c3)cn3nccc23)cn1 (single isomer, unassigned) : 6.00 to 7.00
C[C@H](CC(F)(F)F)n1cc(-c2nc(-c3cnn(C[C@@H](O)CO)c3)cn3nccc23)cn1 [Example 194, hydrochloride] : 5.00 to 6.00
CCC(CC)n1cc(-c2nc(-c3cnn(C[C@@H](O)CN4CCCC4)c3)cn3nccc23)cn1 : 5.00 to 6.00

Input line: Report pIC50 from JAK1 (Homo sapiens (Human), UniProt P23458) testing of CC[C@@H](C)n1cc(-c2nc(-c3cnn(C[C@H](O)CO)c3)cn3nccc23)cn1
Output line: 5.00 to 6.00

Input line: Provide the reported pIC50 (system: JAK1 (Homo sapiens (Human), UniProt P23458)) for CC[C@H](CC1CC1)n1cc(-c2nc(-c3cnn(C[C@@H](O)CO)c3)cn3nccc23)cn1
Output line: 5.00 to 6.00

Input line: Fetch value of pIC50 on JAK1 (Homo sapiens (Human), UniProt P23458) for CCC(CC)n1cc(-c2nc(-c3cnn([C@@H]4CCC[C@@H]4O)c3)cn3nccc23)cn1 .
Output line: 5.00 to 6.00

Input line: Give pIC50 only, for CC[C@H](C1CC1)n1cc(-c2nc(-c3cnn(C(CO)CO)c3)cn3nccc23)cn1 , using JAK1 (Homo sapiens (Human), UniProt P23458) data.
Output line: 6.00 to 7.00

###

pIC50: −log10 of the molar value.
Let's go through some pIC50 measurements on JAK2 (Homo sapiens (Human)) together.
Sequence (O60674 whole entry): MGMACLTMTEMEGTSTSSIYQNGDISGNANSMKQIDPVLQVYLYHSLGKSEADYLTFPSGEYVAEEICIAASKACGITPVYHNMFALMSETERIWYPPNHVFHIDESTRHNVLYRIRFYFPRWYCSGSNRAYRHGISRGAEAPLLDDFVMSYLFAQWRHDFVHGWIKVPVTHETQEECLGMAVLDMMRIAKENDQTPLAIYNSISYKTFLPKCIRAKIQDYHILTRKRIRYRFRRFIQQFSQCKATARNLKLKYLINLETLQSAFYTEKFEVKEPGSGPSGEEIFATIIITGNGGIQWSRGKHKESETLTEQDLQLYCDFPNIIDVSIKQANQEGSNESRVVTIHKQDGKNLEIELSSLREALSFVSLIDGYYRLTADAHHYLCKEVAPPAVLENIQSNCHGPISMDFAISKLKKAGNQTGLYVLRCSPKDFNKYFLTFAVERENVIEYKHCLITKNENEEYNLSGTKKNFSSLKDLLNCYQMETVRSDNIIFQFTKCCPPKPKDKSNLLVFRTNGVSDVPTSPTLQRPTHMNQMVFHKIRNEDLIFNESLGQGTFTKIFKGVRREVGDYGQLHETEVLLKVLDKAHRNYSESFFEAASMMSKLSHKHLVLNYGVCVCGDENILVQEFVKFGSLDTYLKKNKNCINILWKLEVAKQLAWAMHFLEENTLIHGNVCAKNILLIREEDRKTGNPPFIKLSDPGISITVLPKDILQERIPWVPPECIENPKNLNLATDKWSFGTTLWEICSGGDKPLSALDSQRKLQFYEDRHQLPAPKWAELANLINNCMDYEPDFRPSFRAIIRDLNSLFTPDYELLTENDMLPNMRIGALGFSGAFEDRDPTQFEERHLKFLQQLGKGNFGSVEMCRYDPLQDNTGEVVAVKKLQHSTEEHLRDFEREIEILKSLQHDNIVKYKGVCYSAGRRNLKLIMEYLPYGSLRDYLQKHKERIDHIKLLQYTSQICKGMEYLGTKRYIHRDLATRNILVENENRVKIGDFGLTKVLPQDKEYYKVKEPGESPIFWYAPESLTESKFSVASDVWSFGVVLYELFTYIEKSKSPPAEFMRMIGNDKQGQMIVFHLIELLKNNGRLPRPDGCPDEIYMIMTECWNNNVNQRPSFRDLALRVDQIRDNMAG

Consider the reported pIC50 for these molecules:
CCC(CC)n1cc(-c2nc(-c3cnn(CC4CCS(=O)(=O)CC4)c3)cn3nccc23)cn1 : 7.00 to 8.00
CCC(CC)n1cc(-c2nc(-c3cnn([C@H]4C[C@@H](C(=O)N(C)C)C4)c3)cn3nccc23)cn1 : 7.00 to 8.00
C[C@@H]1CCCC[C@H]1n1cc(-c2nc(-c3cnn(C[C@@H](O)CO)c3)cn3nccc23)cn1 (single isomer, unassigned) : 7.00 to 8.00
CCOC(C)n1cc(-c2nc(-c3cnn(C)c3)cn3nccc23)cn1 (centres unmarked) : 5.00 to 6.00
CCC(CC)n1cc(-c2nc(-c3cnn(C[C@@H](O)CO)c3)cn3nccc23)cn1 : 7.00 to 8.00
CCC(CC)n1cc(-c2nc(-c3cnn(C[C@@H](N)CO)c3)cn3nccc23)cn1 : 7.00 to 8.00

Input line: Please report pIC50 with JAK2 (Homo sapiens (Human)) for item Cn1cc(-c2cn3nccc3c(-c3cnn(C4CCCC4O)c3)n2)cn1 (centres unmarked) .
Output line: 6.00 to 7.00

Input line: Write down the reported pIC50 (system: JAK2 (Homo sapiens (Human))) of CCC(CC)n1cc(-c2nc(-c3cnn(CCN(C)C)c3)cn3nccc23)cn1
Output line: 7.00 to 8.00

###

Structures can show the parent of a compound that is named as a salt.
Values of IC50 reported for JAK2 (Homo sapiens (Human), UniProt O60674) appear below.

CCC(CC)n1cc(-c2nc(-c3cnn(C[C@H](O)CN4CC(OC)C4)c3)cn3nccc23)cn1 [Example 103] : 10 to 100 nM
CCC(CC)n1cc(-c2nc(-c3cnn(CCN4CC[C@@H](OC)C4)c3)cn3nccc23)cn1 [Example 136] : 10 to 100 nM
CCC(CC)n1cc(-c2nc(-c3cnn(C4CN(C(=O)NC)C4)c3)cn3nccc23)cn1 [Example 39] : 10 to 100 nM
CCC(CC(F)(F)F)n1cc(-c2nc(-c3cnn(C[C@@H](O)CO)c3)cn3nccc23)cn1 (single isomer, unassigned) [Example 210] : 100 to 1000 nM
CCC(CC)n1cc(-c2nc(-c3cnn(CC(O)C(C)C)c3)cn3nccc23)cn1 (stereo not drawn) [Example 113] : 100 to 1000 nM
CC[C@H](C)n1cc(-c2nc(-c3cnn(C[C@H](O)CO)c3)cn3nccc23)cn1 [Example 70, hydrochloride] : 10 to 100 nM
OC[C@H](O)Cn1cc(-c2cn3nccc3c(-c3cnn(C(C4CC4)C4CC4)c3)n2)cn1 [Example 216] : 100 to 1000 nM
CCC(CC)n1cc(-c2nc(-c3cnn([C@H]4C[C@H](C(N)=O)C4)c3)cn3nccc23)cn1 [Example 167] : 10 to 100 nM
CCC(CC)n1cc(-c2nc(-c3cnn(C[C@H](O)CN4CCCC4)c3)cn3nccc23)cn1 [Example 105] : 100 to 1000 nM
CCC[C@H](C)n1cc(-c2nc(-c3cnn(C[C@@H](O)CO)c3)cn3nccc23)cn1 [Example 72] : 100 to 1000 nM

Input line: // Input: CC[C@@H](C)n1cc(-c2nc(-c3cnn(C[C@@H](O)CO)c3)cn3nccc23)cn1 [Example 69] . Output its IC50 only.
Output line: 100 to 1000 nM

Input line: Name the recorded IC50 of the item C[C@@H]1CCCC[C@H]1n1cc(-c2nc(-c3cnn(C(CO)CO)c3)cn3nccc23)cn1 (single isomer, unassigned) [Example 150] in your answer.
Output line: 10 to 100 nM

Input line: Specify measured IC50 for CCC(CC)n1cc(-c2nc(-c3cnn(C[C@H](O)CNC)c3)cn3nccc23)cn1 [Example 100] .
Output line: 10 to 100 nM

Input line: Please report IC50 for the following molecule: CCC(CC)n1cc(-c2nc(-c3cnn([C@@H](C)CO)c3)cn3nccc23)cn1 [Example 125]
Output line: 100 to 1000 nM

Input line: Look up IC50 of CCC(CC)n1cc(-c2nc(-c3cnn(CCCO)c3)cn3nccc23)cn1 [Example 19] and report it.
Output line: 1000 to 10000 nM

###

- targetUnderTest: JAK2 (Homo sapiens (Human))
Where a name gives a salt, the structure may show the parent alone.
measure: IC50

Input line: Specify measured IC50 for CCC(CC)n1cc(-c2nc(-c3cnn(CCN4CCC(O)CC4)c3)cn3nccc23)cn1 .
Output line: 100 to 1000 nM

Input line: Provide only the value of recorded IC50 for CCC(CC)n1cc(-c2nc(-c3cnn(C[C@@H]4CNCCO4)c3)cn3nccc23)cn1
Output line: 100 to 1000 nM

Input line: For CCC(CC)n1cc(-c2nc(-c3cnn(C[C@H]4CCC(=O)N4)c3)cn3nccc23)cn1 , write its IC50.
Output line: 10 to 100 nM

Input line: Consider the compound CCC(CC)n1cc(-c2nc(-c3cnn(CC(=O)N4CCOCC4)c3)cn3nccc23)cn1 and give its recorded IC50.
Output line: 10 to 100 nM

Input line: Report measured IC50; entry is CCC(CC)n1cc(-c2nc(-c3cnn(C[C@H]4CNCCO4)c3)cn3nccc23)cn1
Output line: 100 to 1000 nM

Input line: Identify IC50 associated with the compound C[C@H](CC(F)(F)F)n1cc(-c2nc(-c3cnn(C[C@@H](O)CO)c3)cn3nccc23)cn1 [Example 194, hydrochloride]
Output line: 100 to 1000 nM

Input line: Return the recorded IC50 value; entry: CCC(CC)n1cc(-c2nc(-c3cnn([C@@H]4CCNC[C@H]4O)c3)cn3nccc23)cn1
Output line: 10 to 100 nM
